- measurement-notes: P. aeruginosa biofilm formation inhibitors, primary screen, PAO1 strain, BacTiter-Glo luminescence, LB-PBS (AID 1144)
- condition-description: 12 h, higher = more signal
z-score listing for selected molecules.
// print number alone

C=CCN1C(=O)[C@]2(O[C@H](CCO)[C@@H]([Si](C)(C)c3ccc(OC)cc3)[C@@H]2C)c2cc(N3C(=O)c4cccc5cccc3c45)ccc21
0.00752

Given item COc1ccc(C(O)C2C=CC3C(=O)N(C)C(=O)C3N2N2CCCCC2)c2ccccc12 (configuration not stated) , the value recorded as its z-score is 0.28

Given item C=C(CCCC)C(=O)CC[C@H](OC(=O)c1cccnc1)c1ccccc1OCCO , the value recorded as its z-score is -0.0162

Given item O=C1OCCC/C=C\[C@H]2OC34C=CCN(c5ccc6ccccc6c5)C(=O)[C@H]3N(CCCCCCO)C(=O)[C@@H]4C12 (some centres not stated) , the value recorded as its z-score is -1.7

Given item O=C1O[C@H](c2ccccc2)[C@H](c2ccccc2)N2[C@H]1[C@@H](C(=O)Nc1nc3ccccc3s1)[C@]1(C(=O)Nc3ccc(C#CC4(O)CCCCCC4)cc31)[C@H]2c1ccc(OCCO)cc1 , the value recorded as its z-score is -1.88

Given item O=C1C[C@]2(c3ccc([N+](=O)[O-])cc3)C(=O)N(CCN3CCOCC3)c3cc(CO)ccc3[C@H]2N1C1CCCCC1 , the value recorded as its z-score is -0.02

Given item O=C1OCCC/C=C\[C@H]2OC34C=CCN(Cc5ccccc5)C(=O)[C@H]3N(CCCCCCO)C(=O)[C@@H]4C12 (some centres not stated) , the value recorded as its z-score is -1.14

====

composite z-score listing for selected compounds.
- measurement-notes: small-molecule microarray binders of probe aDKK1, primary screen, biochemical, biotinylated probe, 635/667 nm fluorescence (AID 1099);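 note: score merges 667nm spot fluorescence with signal to noise across triplicate slides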
- condition-description: higher = more signal
// print number alone

O=C1O[C@H](c2ccccc2)[C@H](c2ccccc2)N2[C@H]1[C@@H](C(=O)Nc1nc3ccccc3s1)[C@]1(C(=O)Nc3ccc(C#CCCO)cc31)[C@H]2c1ccc(OCCO)cc1
-0.198
[N-]=[N+]=NCc1ccccc1[C@H]1OC(c2ccc(OCCCO)cc2)=N[C@@]1(Cc1ccccc1)C(=O)NCc1ccccc1
0.646
COc1ccc(C(O)C2C=CC3C(=O)N(C)C(=O)C3N2N2CCCCC2)c2ccccc12 (stereo unspecified)
0.65
COC(=O)c1c(CC[C@@H](CO)NC(=O)N[C@H](Cn2cc(Cc3ccccc3)nn2)C(C)C)oc(C(C)=O)c1C(=O)OC
-0.195
CN(C)CCCC[C@@H]1NC(=O)[C@H]2C[C@@H](C(=O)NCCCCCNC(=O)CS)[C@@H](c3cccc(OCCO)c3)N2C1=O
-0.144

Now turn to the next compound.
Given item C=CCOC(=O)[C@H]1[C@@H]2C(=O)O[C@@H](c3ccccc3)[C@@H](c3ccccc3)N2[C@@H](c2ccc(OCCOC(=O)[C@H]3C[C@H]4C(=O)N5CCC[C@H]5C(=O)N4[C@H]3c3ccc(O)cc3)cc2)[C@]12C(=O)Nc1ccccc12 , the value recorded as its composite z-score is -0.202

====

- system-name: Neurogenic locus notch homolog protein 2 (Homo sapiens) (UniProt Q04721)
- Sequence (Q04721 whole entry, looked up): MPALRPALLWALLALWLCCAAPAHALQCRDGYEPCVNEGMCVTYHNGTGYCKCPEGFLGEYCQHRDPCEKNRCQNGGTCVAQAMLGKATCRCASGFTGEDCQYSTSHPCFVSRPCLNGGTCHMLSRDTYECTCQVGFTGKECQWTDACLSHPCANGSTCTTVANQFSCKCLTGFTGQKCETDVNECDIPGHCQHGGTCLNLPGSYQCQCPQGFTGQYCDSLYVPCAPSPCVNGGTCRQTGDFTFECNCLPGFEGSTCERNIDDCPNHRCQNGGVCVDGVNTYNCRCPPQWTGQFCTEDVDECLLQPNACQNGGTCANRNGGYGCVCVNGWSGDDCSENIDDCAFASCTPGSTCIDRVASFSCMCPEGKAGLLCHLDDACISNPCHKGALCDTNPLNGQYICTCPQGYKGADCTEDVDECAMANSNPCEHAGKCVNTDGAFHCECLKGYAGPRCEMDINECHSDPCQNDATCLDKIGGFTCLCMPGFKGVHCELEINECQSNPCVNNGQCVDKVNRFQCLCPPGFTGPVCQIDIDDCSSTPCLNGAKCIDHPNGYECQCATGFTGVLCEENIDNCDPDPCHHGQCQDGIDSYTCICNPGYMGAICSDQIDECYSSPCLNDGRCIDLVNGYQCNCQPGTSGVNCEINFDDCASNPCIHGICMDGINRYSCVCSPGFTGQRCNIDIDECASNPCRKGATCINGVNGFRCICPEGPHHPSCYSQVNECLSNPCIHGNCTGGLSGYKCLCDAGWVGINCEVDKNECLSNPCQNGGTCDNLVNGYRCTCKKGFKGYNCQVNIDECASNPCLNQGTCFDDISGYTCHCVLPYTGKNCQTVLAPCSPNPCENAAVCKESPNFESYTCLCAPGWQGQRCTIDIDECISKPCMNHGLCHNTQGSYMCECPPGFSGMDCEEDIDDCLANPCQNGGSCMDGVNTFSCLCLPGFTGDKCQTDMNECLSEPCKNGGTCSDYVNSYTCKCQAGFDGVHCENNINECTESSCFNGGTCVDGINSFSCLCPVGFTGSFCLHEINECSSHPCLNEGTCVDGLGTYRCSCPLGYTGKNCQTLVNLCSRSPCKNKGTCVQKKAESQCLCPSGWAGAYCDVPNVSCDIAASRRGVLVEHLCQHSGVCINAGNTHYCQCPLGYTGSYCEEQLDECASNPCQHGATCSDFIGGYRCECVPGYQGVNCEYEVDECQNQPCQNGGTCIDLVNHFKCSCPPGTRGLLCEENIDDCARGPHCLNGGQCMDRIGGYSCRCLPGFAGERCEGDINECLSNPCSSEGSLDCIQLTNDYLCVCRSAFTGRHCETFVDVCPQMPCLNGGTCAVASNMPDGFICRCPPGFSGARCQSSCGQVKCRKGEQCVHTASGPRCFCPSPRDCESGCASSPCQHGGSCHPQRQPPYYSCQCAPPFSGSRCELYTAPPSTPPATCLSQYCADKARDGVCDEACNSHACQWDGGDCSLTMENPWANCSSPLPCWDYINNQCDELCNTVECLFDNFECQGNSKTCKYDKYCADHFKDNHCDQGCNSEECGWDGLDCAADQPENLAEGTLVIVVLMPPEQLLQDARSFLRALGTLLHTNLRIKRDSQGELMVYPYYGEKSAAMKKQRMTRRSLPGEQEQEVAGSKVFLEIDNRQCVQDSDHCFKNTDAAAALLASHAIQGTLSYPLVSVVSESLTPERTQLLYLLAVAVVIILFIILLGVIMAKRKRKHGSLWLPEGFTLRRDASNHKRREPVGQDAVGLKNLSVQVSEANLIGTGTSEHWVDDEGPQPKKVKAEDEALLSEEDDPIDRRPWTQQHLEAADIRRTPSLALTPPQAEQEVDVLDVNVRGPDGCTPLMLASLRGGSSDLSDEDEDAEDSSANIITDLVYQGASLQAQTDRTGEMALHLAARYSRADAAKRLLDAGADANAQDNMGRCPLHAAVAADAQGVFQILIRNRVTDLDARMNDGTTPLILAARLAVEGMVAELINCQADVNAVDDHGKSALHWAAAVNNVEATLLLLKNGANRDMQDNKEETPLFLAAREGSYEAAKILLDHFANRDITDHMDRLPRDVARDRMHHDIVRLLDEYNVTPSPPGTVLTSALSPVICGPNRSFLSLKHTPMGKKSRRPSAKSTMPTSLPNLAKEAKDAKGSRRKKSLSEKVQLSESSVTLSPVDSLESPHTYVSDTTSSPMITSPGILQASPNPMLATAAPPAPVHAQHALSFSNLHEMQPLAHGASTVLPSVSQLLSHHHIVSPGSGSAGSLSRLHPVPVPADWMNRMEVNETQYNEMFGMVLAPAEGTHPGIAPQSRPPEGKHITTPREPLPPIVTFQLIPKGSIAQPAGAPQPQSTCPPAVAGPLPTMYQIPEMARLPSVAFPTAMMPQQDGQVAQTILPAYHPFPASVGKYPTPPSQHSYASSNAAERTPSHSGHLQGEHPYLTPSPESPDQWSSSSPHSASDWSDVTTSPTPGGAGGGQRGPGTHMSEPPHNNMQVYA
- measurement-notes: Notch2 binders on small-molecule microarrays, primary screen, biochemical, small-molecule microarray, 635 nm fluorescence, stem cell growth factors (AID 1073)
- condition-description: Notch2 binding, higher = more signal
endpoint-label: composite z-score
// print number alone

Given item COC(=O)[C@@]1(Cc2ccccc2)[C@H]2c3cc(C(=O)N4CCCC4)n(CC4CC4)c3C[C@H]2CN1C(=O)c1ccccc1 , the value recorded as its composite z-score is 1.6

====

- system-name: Calmodulin-1 (Homo sapiens) (UniProt P0DP23)
- measurement-notes: calcium-bound CALM1 binders on microarrays, profiling panel, artefact control for SMM control-protein annotation, biochemical, small-molecule microarray, Cy5-labelled CALM1, plus calcium (AID 1112);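 note: score merges spot fluorescence with signal to noise from triplicate slides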
- condition-description: Cy5-CALM1 binding fluorescence, higher = more signal
endpoint-label: composite z-score

Before answering, review these 2 worked examples.
CCCCC=C[C@@H](NC(=O)Oc1cccc(C(F)(F)F)c1)c1ccccc1
1.11
CN(C)C(=O)[C@]1(Cc2ccccc2CN=[N+]=[N-])N=C(c2ccc(OCCCO)cc2)O[C@@H]1c1ccccc1CN=[N+]=[N-]
0.708

Given item CCOC(=O)C[C@H]1[C@H](OC(=O)c2cc3ccccc3oc2=O)[C@@H](NC(=O)Cc2ccc(OC)cc2)c2cc(OCCCO)ccc2N1C(=O)c1ccccc1 , the value recorded as its composite z-score is -0.342

Given item O=C(NCc1ccccc1)[C@@H]1c2ccccc2C(=O)N(CC23CC4CC(CC(C4)C2)C3)[C@H]1c1ccc(CO)cc1 , the value recorded as its composite z-score is -0.831

Given item CCCC=C(CCC)[C@@H](NC(=O)Oc1ccc(F)cc1)c1ccc(C(=O)OC)cc1 , the value recorded as its composite z-score is 1.13

Given item COc1ccc(CCNC(=O)[C@@H]2c3ccccc3C(=O)N(C3Cc4ccccc4C3)[C@H]2c2ccc(CO)cc2)cc1 , the value recorded as its composite z-score is 0.732

Given item C[C@@]1([C@@H](NC(=O)c2ccccc2)c2ccc(-c3ccccc3)cc2)C[C@H]1C1CCCCC1 , the value recorded as its composite z-score is 1.19

Given item CN(C)CCCC[C@@H]1NC(=O)[C@H]2C[C@@H](C(=O)NCCCCCNC(=O)CS)[C@@H](c3cccc(OCCO)c3)N2C1=O , the value recorded as its composite z-score is -0.734

Given item CCOC1=C2C(CN(S(=O)(=O)c3ccc(C)cc3)C2c2ccc(C)cc2)C2C(=O)N(c3ccccc3)C(=O)C2C1 (stereo not given) , the value recorded as its composite z-score is 0.528

Given item COC(=O)C=C(CC(O)c1cccc(Cl)c1)OC (stereo not given) , the value recorded as its composite z-score is 1.01

====

- Tested on: wheat germ agglutinin (Triticum aestivum), Alexa647-labelled
- measurement-notes: wheat germ agglutinin binders on compound microarrays, profiling panel, artefact control for SMM control-protein annotation, biochemical, small-molecule microarray, 635/667 nm fluorescence (AID 1140);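 note: score merges 667 nm feature emission with signal to noise over triplicate slides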
- condition-description: WGA-A647 binding, 635 nm fluorescence, higher = more signal
composite z-score listing for selected compounds.
// print number alone

Before answering, review these 6 worked examples.
N#Cc1ccc(NN2C(C(O)c3c(F)cccc3Cl)C=CC3C(=O)N(c4ccccc4)C(=O)C32)cc1 (configuration not stated)
0.997
CC(=O)N1Cc2ccccc2C[C@@]2(COC(c3ccc(OCCCO)cc3)=N2)C1=O
1.29
COc1cc2c(cc1O)C(C1CC1)N(Cc1cc3c(cc1Br)OCO3)CC2 (configuration not stated)
-0.503
O=C1O[C@H](c2ccccc2)[C@H](c2ccccc2)N2[C@H]1[C@@H](C(=O)NC[C@H](O)c1ccccc1)[C@]1(C(=O)Nc3ccccc31)[C@H]2c1ccc(OCCO)cc1
0.864
C=CCOC(=O)[C@@H]1[C@H]2C(=O)O[C@H](c3ccccc3)[C@H](c3ccccc3)N2[C@H](c2ccc(OCCOC(=O)[C@@H]3C[C@@H]4C(=O)N[C@@H](Cc5ccccc5)C(=O)N4[C@@H]3c3ccc(O)cc3)cc2)[C@@]12C(=O)Nc1ccc(I)cc12
0.844
C=C[C@H](COC(C)=O)N(C(=O)OC(C)(C)C)S(=O)(=O)c1ccc(Br)cc1
0.233

Now turn to the next compound.
Given item CC(C)[C@@H](CO)NC(=O)[C@H]1[C@@H](c2ccccc2)N(c2ccccc2)O[C@@H]1C , the value recorded as its composite z-score is 0.149

====

- measurement-notes: S. cerevisiae growth modulation with rapamycin, primary screen, strain BY4716, OD600, 96 h (AID 1091); note: test concentration not given here
- condition-description: called active from +8 up or from −8 down
Calls of active or inactive are those of the source.
Just give me one of these, please: active, inactive

C=CCNC(=O)[C@@H]1[C@H]2C(=O)O[C@H](c3ccccc3)[C@H](c3ccccc3)N2[C@H](c2ccc(OCCO)cc2)[C@@]12C(=O)Nc1ccc(C#Cc3ccc(OC)cc3)cc12
inactive

Dear colleague, could you share the recorded outcome for CC(C)C[C@@H]1NC(=O)[C@H]2C[C@@H](C(=O)NCCCCCCN(C)C)[C@@H](c3ccc(O)cc3)N2C1=O when you have a moment?
inactive

Dear colleague, could you share the recorded outcome for COc1ccc(C(O)C2C=CC3C(=O)NC(=O)C3N2Nc2ccccn2)c2ccccc12 (configuration not stated) when you have a moment?
inactive

Dear colleague, could you share the recorded outcome for COc1cc2c(cc1OC)CN(C(=O)[C@@H]1[C@H]3C(=O)O[C@H](c4ccccc4)[C@H](c4ccccc4)N3[C@H](c3ccc(O)cc3)[C@@]13C(=O)Nc1ccc(C#CC4(O)CCCCCC4)cc13)CC2 when you have a moment?
inactive

Dear colleague, could you share the recorded outcome for CC1(C)[C@@H]2CC(C(O)C3C=CC4C(=O)N(c5ccccc5)C(=O)C4N3Nc3ccccc3)=C[C@H]1C2 (some centres not stated) when you have a moment?
inactive

Dear colleague, could you share the recorded outcome for COc1cc(OC)c(C(O)C2C=CC3C(=O)NC(=O)C3N2Nc2ccc(Cl)cc2Cl)cc1Br (configuration not stated) when you have a moment?
inactive

Dear colleague, could you share the recorded outcome for O=C1OCCC/C=C\[C@H]2OC34C=CCN(Cc5ccccc5)C(=O)[C@H]3N(CCCCCCO)C(=O)[C@@H]4C12 (some centres not stated) when you have a moment?
inactive

Dear colleague, could you share the recorded outcome for O=C(NCc1ccccc1)[C@@]1(CCS(=O)(=O)c2ccccc2)N=C(c2ccc(OCCCO)cc2)O[C@H]1c1ccccc1 when you have a moment?
active

Dear colleague, could you share the recorded outcome for CCCCc1cn(C[C@H](Cc2ccccc2)NC(=O)N[C@H](CO)CCc2oc(C(C)=O)c(C(=O)OC)c2C(=O)OC)nn1 when you have a moment?
inactive

Dear colleague, could you share the recorded outcome for O=C1NCC(=O)N2[C@@H]1C[C@@H](C(=O)O)[C@H]2c1cccc(OCCO)c1 when you have a moment?
inactive

Dear colleague, could you share the recorded outcome for C=C(CCCC)/C(=C/C[C@@H](OC(C)=O)c1ccccc1OCCO)c1cnc2ccccc2c1 when you have a moment?
inactive

Dear colleague, could you share the recorded outcome for COC(=O)[C@@]1(Cc2ccc(F)cc2)[C@H]2c3cc(C(=O)N(C)C)n(Cc4ccc(S(C)(=O)=O)cc4)c3C[C@H]2CN1C(=O)c1ccccc1 when you have a moment?
inactive
